PROTOCOL_NOTES: NCI Yeast Anticancer Drug Screen. Data for the rad50 strain (AID 155);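 note: 0% = growth of vehicle-only cultures of the same strain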
CONDITIONS: S. cerevisiae rad50 strain growth inhibition; at 50.0 µM; hits give high values
This is part of a sample that, as a whole, favours compounds with a hit. Of some 79,000 tested, about 15% had one in any assay. Calls of active or inactive are those of the source. Cut-off read from the data, not from the text of the source: active = growth inhibition above about 70%; inactive = the rest.
Listing of recorded growth inhibition by entry.
OUTCOME_MEASURE: growth inhibition

1) CC(C)(C)NC(=O)C12C3C4C1C1C2C3C41C(=O)NC(C)(C)C (stereo not drawn)
-19.3% (inactive)
2) O=P(Nc1ccc(Cl)cc1)(Nc1ccc(Cl)cc1)N1CCCCC1
23% (inactive)
3) COc1cc(CC(=O)O)ccc1O
11.8% (inactive)
4) CCCCCNc1ncnc2c1cnn2C
7.6% (inactive)
5) CC1C(=O)C2C1CS2(=O)=O (stereo not drawn)
-0.9% (inactive)
6) CCOC(=O)C1C(C)=CC(=O)CC1C(C)C (stereo not drawn)
4.1% (inactive)
7) COC(=O)CCC1=C(C)C2=NC1=CC1=NC(=CC3=NC(=Cc4[nH]c(/c(=C\O)c4C)=C2)C(C=O)=C3C)C(C)=C1CCC(=O)OC
28.1% (inactive)
8) COc1cccc(/C=C2/C(=O)N(c3ccc([N+](=O)[O-])cc3)N=C2C)c1
34.5% (inactive)
9) CCCCCCCCCCCC(=O)OC(COC(N)=O)COc1ccc(Cl)cc1 (stereo not drawn)
-34.2% (inactive)
10) O=c1[nH]c2cc([N+](=O)[O-])ccc2nc1/C=C(\O)c1ccccc1
-21.2% (inactive)
11) CC(=O)OCC1OC(n2cnc3c(N)ncnc32)C2OC(C)(C)OC12 (stereo not drawn)
11.4% (inactive)
12) Cc1cccc(-c2cc(=O)c3c(C)cc(C)nc3[nH]2)c1
-2.1% (inactive)
13) Cc1ccc(NC(=O)OCC(F)(F)F)cc1NC(=O)OCC(F)(F)F
1.9% (inactive)
14) CC1(C)COCN1COCCOCN1COCC1(C)C
10.2% (inactive)
15) CN(C)C1=CC(=S)NC2CCCCC12 (stereo not drawn)
4.1% (inactive)
16) CCC(c1ccc(OC)cc1)C1NC(=S)NC1=O (stereo not drawn)
4.05% (inactive)
17) Nc1nnc(-c2ccccc2)nn1
4.05% (inactive)
18) COc1ccc(Cl)cc1NC(=O)CC(C)=O
-9.9% (inactive)
19) CCC(C(N)C(=O)O)C(F)(F)F (stereo not drawn)
-19.4% (inactive)
20) CC(C)(Oc1ccc2c(=O)cc(-c3ccc(Cl)cc3)oc2c1)C(=O)Nc1c(Cl)cccc1Cl
16.4% (inactive)
21) CC(=O)Nc1cccc(C)n1
-17.8% (inactive)
22) O=C1CCCc2cc3c(cc21)CC1(Cc2ccccc2C1)C3
-12.2% (inactive)
23) Cc1ccccc1OCC(C)OC(N)=O (stereo not drawn)
6.1% (inactive)
24) CS/C(N)=N\C(=O)N(C)C
2.75% (inactive)
25) Cc1c(-c2ccccc2)c(=O)oc2ccc(Cl)cc12
-34% (inactive)
26) COc1ccc(N2C(=O)C3c4[nH]c5ccc(OC)cc5c4C4CCC(C(C)(C)C)CC4C3C2=O)cc1 (stereo not drawn)
22.1% (inactive)
27) O=C(CNC(=O)c1ccccc1)NCS(=O)(=O)O
12.2% (inactive)
28) CCOC(=O)CCc1cnc[nH]1
-60.5% (inactive)
29) NC(=S)SCCC(=O)N1CCCC1
-1.25% (inactive)
30) COc1ccc(NS(=O)(=O)c2ccc(NCc3c4ccccc4nc4ccccc34)cc2)nn1
-13.3% (inactive)
31) CCOC(=O)C1=NN(c2ccccc2)C(=O)/C1=C\N1C(=S)NC(=O)/C1=C\c1cccc([N+](=O)[O-])c1
11.2% (inactive)
32) Brc1cc(Br)cc(-c2nnc(-c3ccc4ccccc4c3)o2)c1
-3.5% (inactive)
33) Cc1c(Cl)cccc1NC(=O)OCCCc1ccccc1
1.5% (inactive)
34) N#C/C(c1ccccc1)=[N+](/[O-])O
2.55% (inactive)
35) N#Cc1cc2c(n(C3OC(CO)C(O)C(O)C3O)c1=S)CCCCCC2 (stereo not drawn)
31% (inactive)
36) C/C=C\c1ccc2oc(-c3ccc4c(c3)OCO4)c(C)c2c1
3.2% (inactive)
37) CC1=NN(C(=O)c2ccncc2)C(=O)C1N=Nc1ccc(F)cc1 (stereo not drawn)
-4.65% (inactive)
38) O=c1c2cc3ccccc3cc2c(=O)n2n1CC(O)C(Br)C2 (stereo not drawn)
64.7% (inactive)
39) COC(=O)C1CCc2c(OC)ccc(OC)c2C1=O (stereo not drawn)
-2.75% (inactive)
40) CC1(C)CCCC(OC(=O)c2ccc([N+](=O)[O-])cc2)C1 (stereo not drawn)
10.4% (inactive)
41) Cn1c(=O)cnc2c3ccccc3ccc21
22.8% (inactive)
42) CCO/C=C1/N=C(c2ccc(OC)c(OC)c2)OC1=O
-6.3% (inactive)
43) C=C(C)C(=O)O[C@H]1CC2=C[C@@H](C[C@@]3(C)O[C@@H]3[C@H]3OC(=O)C(=C)[C@@H]31)OC2=O
-8.35% (inactive)
